system: 843782-103-R-J1-PDC complex spheroid viability; test: Anticancer human tumor 843782-103-R-J1-PDC patient-derived lung adenocarcinoma cell line growth inhibition [RAS]; details: second compound 0.00949 µM; first compound 1 µM; stronger effect = lower value
Quantity Measured: viability, T/C (%)
The reply should be a number in %, with the unit left off.

These recorded examples may help you get a feel for the data.
INSERT INTO assay_data (compound, quantity_measured, measure_unit, recorded_result) VALUES
  ('C=CC(=O)N1CCN(c2nc(OCC3CCCN3C)nc3c(F)c(-c4nc(N)cc(C)c4C(F)(F)F)c(Cl)cc23)C(C)C1 (stereo not given) + CCn1c(-c2cc(N3CCN(C)CC3)cnc2C(C)OC)c2c3cc(ccc31)-c1csc(n1)CC(NC(=O)C1CC1C)C(=O)N1CCCC(N1)C(=O)OCC(C)(C)C2', 'viability, T/C', '%', 35.8),
  ('O=C(c1ccc(F)c(F)c1Nc1ccc(I)cc1F)N1CC(O)([C@@H]2CCCCN2)C1 + CCn1c(-c2cccnc2C(C)OC)c2c3cc(ccc31)N1CCOC(CC(NC(=O)C(C(C)C)N(C)C(=O)C3(F)CCN(C(=O)C#CC(C)(C)N(C)C)CC3)C(=O)N3CCCC(N3)C(=O)OCC(C)(C)C2)C1', 'viability, T/C', '%', 11.9),
  ('CC(Nc1ccc2c(c1)OCCn1cc(N3C(=O)OCC3C(F)F)nc1-2)C(N)=O (stereo not given) + CCn1c(-c2cccnc2C(C)OC)c2c3cc(ccc31)N1CCOC(CC(NC(=O)C(C(C)C)N(C)C(=O)C3(F)CCN(C(=O)C#CC(C)(C)N(C)C)CC3)C(=O)N3CCCC(N3)C(=O)OCC(C)(C)C2)C1', 'viability, T/C', '%', 19.6),
  ('Cc1nc(N2CCC3(CC2)COC(C)C3N)c(CO)nc1Sc1ccnc(N)c1Cl (stereo not given) + CCn1c(-c2cc(N3CCN(C)CC3)cnc2C(C)OC)c2c3cc(ccc31)-c1csc(n1)CC(NC(=O)C1CC1C)C(=O)N1CCCC(N1)C(=O)OCC(C)(C)C2', 'viability, T/C', '%', 19.6);

Which value of viability, T/C has been reported for NC1c2ccccc2OC12CCN(c1cnc3c(N4CCCc5ncccc54)n[nH]c3n1)CC2 (stereo not given) + CCn1c(-c2cccnc2C(C)OC)c2c3cc(ccc31)N1CCOC(CC(NC(=O)C(C(C)C)N(C)C(=O)C3(F)CCN(C(=O)C#CC(C)(C)N(C)C)CC3)C(=O)N3CCCC(N3)C(=O)OCC(C)(C)C2)C1 in the records?
14.5

Which value of viability, T/C has been reported for CC1(O)CCCC1n1c(=O)c(C(F)F)cc2cnc(NC3CCN(S(C)(=O)=O)CC3)nc21 (stereo not given) + CCn1c(-c2cc(N3CCN(C)CC3)cnc2C(C)OC)c2c3cc(ccc31)-c1csc(n1)CC(NC(=O)C1CC1C)C(=O)N1CCCC(N1)C(=O)OCC(C)(C)C2 in the records?
15.8

Which value of viability, T/C has been reported for CC1(O)CCCC1n1c(=O)c(C(F)F)cc2cnc(NC3CCN(S(C)(=O)=O)CC3)nc21 (stereo not given) + CCn1c(-c2cccnc2C(C)OC)c2c3cc(ccc31)N1CCOC(CC(NC(=O)C(C(C)C)N(C)C(=O)C3(F)CCN(C(=O)C#CC(C)(C)N(C)C)CC3)C(=O)N3CCCC(N3)C(=O)OCC(C)(C)C2)C1 in the records?
23.2

Which value of viability, T/C has been reported for CCC(CC)c1cc(NC2CCC(N)C2)n2nccc2n1 (stereo not given) + CCn1c(-c2cccnc2C(C)OC)c2c3cc(ccc31)N1CCOC(CC(NC(=O)C(C(C)C)N(C)C(=O)C3(F)CCN(C(=O)C#CC(C)(C)N(C)C)CC3)C(=O)N3CCCC(N3)C(=O)OCC(C)(C)C2)C1 in the records?
51.9

Which value of viability, T/C has been reported for C=CC(=O)Nc1cc(Nc2nccc(-c3cn(C)c4ccccc34)n2)c(OC)cc1N(C)CCN(C)C + CCn1c(-c2cccnc2C(C)OC)c2c3cc(ccc31)N1CCOC(CC(NC(=O)C(C(C)C)N(C)C(=O)C3(F)CCN(C(=O)C#CC(C)(C)N(C)C)CC3)C(=O)N3CCCC(N3)C(=O)OCC(C)(C)C2)C1 in the records?
26.8

Which value of viability, T/C has been reported for CC(C)NCC(C(=O)N1CCN(c2ncnc3c2C(C)CC3O)CC1)c1ccc(Cl)cc1 (stereo not given) + CCn1c(-c2cc(N3CCN(C)CC3)cnc2C(C)OC)c2c3cc(ccc31)-c1csc(n1)CC(NC(=O)C1CC1C)C(=O)N1CCCC(N1)C(=O)OCC(C)(C)C2 in the records?
15

###

Each entry below lists one item and its recorded IC50 value.
system: 843782-103-R-J1-PDC complex spheroid viability; assay: Anticancer human tumor 843782-103-R-J1-PDC cell line growth inhibition [RAS]; settings: curve of first compound; second compound 0.3 µM;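 note: viability read after seven days of compound exposure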
The reply should be a number in nM, with the unit left off.

These recorded examples may help you get a feel for the data.
INSERT INTO measurements (compound, test_target, measure_unit, recorded_result) VALUES
  ('CCc1c2c(nc3ccc(O)cc13)-c1cc3c(c(=O)n1C2)COC(=O)[C@]3(O)CC + CCn1c(-c2cccnc2C(C)OC)c2c3cc(ccc31)N1CCOC(CC(NC(=O)C(C(C)C)N(C)C(=O)C3(F)CCN(C(=O)C#CC(C)(C)N(C)C)CC3)C(=O)N3CCCC(N3)C(=O)OCC(C)(C)C2)C1', '843782-103-R-J1-PDC complex spheroid viability', 'nM', 1.23),
  ('CC(C)NCC(C(=O)N1CCN(c2ncnc3c2C(C)CC3O)CC1)c1ccc(Cl)cc1 (stereo not drawn) + CCn1c(-c2cccnc2C(C)OC)c2c3cc(ccc31)N1CCOC(CC(NC(=O)C(C(C)C)N(C)C(=O)C3(F)CCN(C(=O)C#CC(C)(C)N(C)C)CC3)C(=O)N3CCCC(N3)C(=O)OCC(C)(C)C2)C1', '843782-103-R-J1-PDC complex spheroid viability', 'nM', 174),
  ('O=C(c1ccc(F)c(F)c1Nc1ccc(I)cc1F)N1CC(O)([C@@H]2CCCCN2)C1 + CCn1c(-c2cccnc2C(C)OC)c2c3cc(ccc31)N1CCOC(CC(NC(=O)C(C(C)C)N(C)C(=O)C3(F)CCN(C(=O)C#CC(C)(C)N(C)C)CC3)C(=O)N3CCCC(N3)C(=O)OCC(C)(C)C2)C1', '843782-103-R-J1-PDC complex spheroid viability', 'nM', 16.2);

Shifting focus to the compound that follows.
Record lookup: for 843782-103-R-J1-PDC complex spheroid viability, what IC50 belongs to Nc1ccn(C2OC(CO)C(O)C2(F)F)c(=O)n1 (stereo not drawn) + CCn1c(-c2cccnc2C(C)OC)c2c3cc(ccc31)N1CCOC(CC(NC(=O)C(C(C)C)N(C)C(=O)C3(F)CCN(C(=O)C#CC(C)(C)N(C)C)CC3)C(=O)N3CCCC(N3)C(=O)OCC(C)(C)C2)C1 ?
14.3

###

tested on: 843782-103-R-J1-PDC complex spheroid viability; experiment: Anticancer human tumor 843782-103-R-J1-PDC cell line growth inhibition [RAS]; details: second compound 10 µM; first compound 1 µM; stronger effect = lower value;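 note: viability read after seven days of compound exposure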
Quantity Measured: viability, T/C (%)
The reply should be a number in %, with the unit left off.

INSERT INTO results (compound, measure_unit, recorded_result) VALUES
  ('CC(C)NCC(C(=O)N1CCN(c2ncnc3c2C(C)CC3O)CC1)c1ccc(Cl)cc1 (stereo not drawn) + C#Cc1c(F)ccc2cc(O)cc(-c3ncc4c(N5CC6CCC(C5)N6)nc(OCC56CCCN5CC(F)C6)nc4c3F)c12', '%', 20);

Record lookup: for 843782-103-R-J1-PDC complex spheroid viability, what viability, T/C belongs to Cc1nc(N2CCC3(CC2)COC(C)C3N)c(CO)nc1Sc1ccnc(N)c1Cl (stereo not drawn) + C#Cc1c(F)ccc2cc(O)cc(-c3ncc4c(N5CC6CCC(C5)N6)nc(OCC56CCCN5CC(F)C6)nc4c3F)c12 ?
25.4

Record lookup: for 843782-103-R-J1-PDC complex spheroid viability, what viability, T/C belongs to O=C(c1ccc(F)c(F)c1Nc1ccc(I)cc1F)N1CC(O)([C@@H]2CCCCN2)C1 + C#Cc1c(F)ccc2cc(O)cc(-c3ncc4c(N5CC6CCC(C5)N6)nc(OCC56CCCN5CC(F)C6)nc4c3F)c12 ?
14

###

tested on: 843782-103-R-J1-PDC complex spheroid viability; experiment: Anticancer human tumor 843782-103-R-J1-PDC cell line growth inhibition [RAS]; conditions: second compound 0.03 µM; first compound 1 µM; stronger effect = lower value;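 note: viability read after seven days of compound exposure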
Quick rule for you: viability, T/C under 20% gets Satisfied, anything else gets Not satisfied.

Below, 5 molecules whose answers are already recorded.
INSERT INTO assay_data (molecule, cat) VALUES
  ('O=C(c1ccc(F)c(F)c1Nc1ccc(I)cc1F)N1CC(O)([C@@H]2CCCCN2)C1 + CCn1c(-c2cccnc2C(C)OC)c2c3cc(ccc31)N1CCOC(CC(NC(=O)C(C(C)C)N(C)C(=O)C3(F)CCN(C(=O)C#CC(C)(C)N(C)C)CC3)C(=O)N3CCCC(N3)C(=O)OCC(C)(C)C2)C1', 'Satisfied'),
  ('CCC(CC)c1cc(NC2CCC(N)C2)n2nccc2n1 (stereo unspecified) + CCn1c(-c2cc(N3CCN(C)CC3)cnc2C(C)OC)c2c3cc(ccc31)-c1csc(n1)CC(NC(=O)C1CC1C)C(=O)N1CCCC(N1)C(=O)OCC(C)(C)C2', 'Satisfied'),
  ('C=CC(=O)N1CCN(c2nc(OCC3CCCN3C)nc3c(F)c(-c4nc(N)cc(C)c4C(F)(F)F)c(Cl)cc23)C(C)C1 (stereo unspecified) + CCn1c(-c2cccnc2C(C)OC)c2c3cc(ccc31)N1CCOC(CC(NC(=O)C(C(C)C)N(C)C(=O)C3(F)CCN(C(=O)C#CC(C)(C)N(C)C)CC3)C(=O)N3CCCC(N3)C(=O)OCC(C)(C)C2)C1', 'Not satisfied'),
  ('Nc1ccn(C2OC(CO)C(O)C2(F)F)c(=O)n1 (stereo unspecified) + CCn1c(-c2cccnc2C(C)OC)c2c3cc(ccc31)N1CCOC(CC(NC(=O)C(C(C)C)N(C)C(=O)C3(F)CCN(C(=O)C#CC(C)(C)N(C)C)CC3)C(=O)N3CCCC(N3)C(=O)OCC(C)(C)C2)C1', 'Satisfied'),
  ('CC(Nc1ccc2c(c1)OCCn1cc(N3C(=O)OCC3C(F)F)nc1-2)C(N)=O (stereo unspecified) + CCn1c(-c2cc(N3CCN(C)CC3)cnc2C(C)OC)c2c3cc(ccc31)-c1csc(n1)CC(NC(=O)C1CC1C)C(=O)N1CCCC(N1)C(=O)OCC(C)(C)C2', 'Satisfied');

Lab log: compare recorded viability, T/C with 20%; is it strictly lower for CC(Nc1ccc2c(c1)OCCn1cc(N3C(=O)OCC3C(F)F)nc1-2)C(N)=O (stereo unspecified) + CCn1c(-c2cccnc2C(C)OC)c2c3cc(ccc31)N1CCOC(CC(NC(=O)C(C(C)C)N(C)C(=O)C3(F)CCN(C(=O)C#CC(C)(C)N(C)C)CC3)C(=O)N3CCCC(N3)C(=O)OCC(C)(C)C2)C1 ?
Satisfied
